# system.tested: UniProt Q72547
# assay.overview: Inhibition of DNA polymerase activity of HIV-1 reverse transcriptase (at 50 uM)
The threshold is inclusive: Initial activity of exactly 0.03% counts as Yes; values below receive No.

smiles.repr | class.label
O=C(CCCCCCCCC(=O)Nc1ccc(S(=O)(=O)O)c2cccc(S(=O)(=O)O)c12)Nc1ccc(S(=O)(=O)O)c2cccc(S(=O)(=O)O)c12 | Yes
O=S(=O)(O)c1cccc2ccc(OS(=O)(=O)c3ccc(-c4ccc(S(=O)(=O)Oc5ccc6cccc(S(=O)(=O)O)c6c5)cc4)cc3)cc12 | No
O=C(Nc1ccc(S(=O)(=O)O)c2cccc(S(=O)(=O)O)c12)c1ccc(C(=O)Nc2ccc(S(=O)(=O)O)c3cccc(S(=O)(=O)O)c23)cc1 | Yes
O=C(CCCCCCCCCCC(=O)Nc1ccc(S(=O)(=O)O)c2cccc(S(=O)(=O)O)c12)Nc1ccc(S(=O)(=O)O)c2cccc(S(=O)(=O)O)c12 | Yes
CCCCCCCCCCCCCCCC(=O)Nc1c(O)cc(S(=O)(=O)O)c2ccccc12 | No
Nc1ccc(S(=O)(=O)O)c2cccc(S(=O)(=O)O)c12 | Yes

---

# Initial activity per entry
# system.tested: Human immunodeficiency virus type 1 reverse transcriptase (Human immunodeficiency virus 1)
# assay.overview: Inhibition of Ribonuclease H activity of HIV-1 reverse transcriptase (at 200 uM)

smiles.repr | Initial activity
CCCCCCCCCCCCCCCc1nc2c(cc(S(=O)(=O)O)c3ccccc32)o1 | 68%
CCCCCCCCCCCCCCCC(=O)Nc1c(O)cc(S(=O)(=O)O)c2ccccc12 | 3%
O=C(CCCCCCC(=O)Nc1ccc(S(=O)(=O)O)c2cccc(S(=O)(=O)O)c12)Nc1ccc(S(=O)(=O)O)c2cccc(S(=O)(=O)O)c12 | 84%
CCCCCCCCCCCCCCCC(=O)Oc1cc(S(=O)(=O)O)cc2cc(S(=O)(=O)O)cc(OC(=O)CCCCCCCCCCCCCCC)c12 | 27%

---

# system.tested: Human immunodeficiency virus type 1 reverse transcriptase (Human immunodeficiency virus 1) (UniProt Q72547)
# assay.overview: Inhibition of DNA polymerase activity of HIV-1 reverse transcriptase (at 50 uM)
Reported Initial activity by item:

molecule | Initial activity, %
CCCCCCCCCCCCCCCC(=O)Oc1cc(S(=O)(=O)O)c2ccccc2c1N | 6.5
O=C(Oc1cc(S(=O)(=O)O)cc2cc(S(=O)(=O)O)ccc12)c1ccc(-c2ccc(C(=O)Oc3cc(S(=O)(=O)O)cc4cc(S(=O)(=O)O)ccc34)cc2)cc1 | 0.2
CCCCCCCCCCCCCCCC(=O)Nc1ccc(S(=O)(=O)O)c2cccc(S(=O)(=O)O)c12 | 0.16
O=S(=O)(O)c1cc(S(=O)(=O)O)c2cc(NS(=O)(=O)c3ccc(-c4ccc(S(=O)(=O)Nc5ccc6cc(S(=O)(=O)O)cc(S(=O)(=O)O)c6c5)cc4)cc3)ccc2c1 | 0.9
O=S(=O)(O)c1cc(S(=O)(=O)O)c2cc(NS(=O)(=O)c3cccc4c(S(=O)(=O)Nc5ccc6cc(S(=O)(=O)O)cc(S(=O)(=O)O)c6c5)cccc34)ccc2c1 | 16
CCCCCCCCCCCCCCCC(=O)Oc1cc(S(=O)(=O)O)cc2cc(S(=O)(=O)O)cc(OC(=O)CCCCCCCCCCCCCCC)c12 | 0
O=C(CCCCCCC(=O)Nc1ccc(S(=O)(=O)O)c2cccc(S(=O)(=O)O)c12)Nc1ccc(S(=O)(=O)O)c2cccc(S(=O)(=O)O)c12 | 100
O=C(CCCCCCC(=O)Nc1ccc(S(=O)(=O)O)c2ccccc12)Nc1ccc(S(=O)(=O)O)c2ccccc12 | 90
CCCCCCCCCCCCCCCc1nc2c(cc(S(=O)(=O)O)c3ccccc32)o1 | 0.2
O=C(CCCCCCCCC(=O)Nc1cc(S(=O)(=O)O)cc2cc(S(=O)(=O)O)cc(O)c12)Nc1cc(S(=O)(=O)O)cc2cc(S(=O)(=O)O)cc(O)c12 | 0
CC(C)CCCC(C)C1CCC2C3CC=C4CC(OC(=O)Nc5cc(S(=O)(=O)O)cc6cc(S(=O)(=O)O)cc(O)c56)CC[C@]4(C)C3CC[C@]12C (stereo partly drawn) | 0
O=C(CCCCCCCCCCC(=O)Nc1ccc(S(=O)(=O)O)c2ccccc12)Nc1ccc(S(=O)(=O)O)c2ccccc12 | 100
O=C(CCCCCCCCC(=O)Nc1ccc(S(=O)(=O)O)c2ccccc12)Nc1ccc(S(=O)(=O)O)c2ccccc12 | 94

---

Collected Initial activity values appear next to each entry.
# system.tested: Human immunodeficiency virus type 1 reverse transcriptase (Human immunodeficiency virus 1)
# assay.overview: Inhibition of Ribonuclease H activity of HIV-1 reverse transcriptase (at 200 uM)
readout.name: Initial activity (%)

compound | readout.name | numeric.value
O=C(Nc1ccc(S(=O)(=O)O)c2cccc(S(=O)(=O)O)c12)c1ccc(C(=O)Nc2ccc(S(=O)(=O)O)c3cccc(S(=O)(=O)O)c23)cc1 | Initial activity | 92
CC(C)CCCC(C)C1CCC2C3CC=C4CC(OC(=O)Nc5cc(S(=O)(=O)O)cc6cc(S(=O)(=O)O)cc(O)c56)CC[C@]4(C)C3CC[C@]12C (some centres not stated) | Initial activity | 0
O=C(CCCCCCCCC(=O)Nc1ccc(S(=O)(=O)O)c2cccc(S(=O)(=O)O)c12)Nc1ccc(S(=O)(=O)O)c2cccc(S(=O)(=O)O)c12 | Initial activity | 57
O=C(CCCCCCCCC(=O)Nc1ccc(S(=O)(=O)O)c2ccccc12)Nc1ccc(S(=O)(=O)O)c2ccccc12 | Initial activity | 70
O=C(O)c1cc(NS(=O)(=O)c2cccc3c(S(=O)(=O)Nc4cc(C(=O)O)c(O)c(S(=O)(=O)O)c4)cccc23)cc(S(=O)(=O)O)c1O | Initial activity | 75
Nc1ccc(S(=O)(=O)O)c2ccccc12 | Initial activity | 88
O=S(=O)(O)c1ccc2c(OS(=O)(=O)c3cccc4c(S(=O)(=O)Oc5cc(S(=O)(=O)O)cc6cc(S(=O)(=O)O)ccc56)cccc34)cc(S(=O)(=O)O)cc2c1 | Initial activity | 43

---

# System: MT4
# assay.overview: 50% effective antiviral concentration was determined on HIV-1 (HTLV-IIIB) in MT-4 cells
# Format: functional, cell-based
# details: Homo sapiens

molecule | EC50
CCCCCCCCCCCCCCCc1nc2c(cc(S(=O)(=O)O)c3ccccc32)o1 | > 42 µM
CCCCCCCCCCCCCCCC(=O)Oc1cc(S(=O)(=O)O)c2ccccc2c1N | > 38 µM
CCCCCCCCCCCCCCCC(=O)Nc1c(O)cc(S(=O)(=O)O)c2ccccc12 | > 21 µM
CC(C)CCCC(C)C1CCC2C3CC=C4CC(OC(=O)Nc5cc(S(=O)(=O)O)cc6cc(S(=O)(=O)O)cc(O)c56)CC[C@]4(C)C3CC[C@]12C (stereo partly specified) | > 500 µM
CCCCCCCCCCCCCCCC(=O)Nc1c(OC(=O)CCCCCCCCCCCCCCC)cc(S(=O)(=O)O)c2ccccc12 | > 41 µM
CCCCCCCCCCCCCCCC(=O)Nc1ccc(S(=O)(=O)O)c2ccccc12 | > 47 µM
